target: Gamma-aminobutyric acid receptor subunit alpha-1 (Homo sapiens) (UniProt P14867); assay: Maximum percent potentiation against gamma-aminobutyric acid (GABA) A receptor, alpha 1; settings: Xenopus laevis
Sequence (P14867 whole entry): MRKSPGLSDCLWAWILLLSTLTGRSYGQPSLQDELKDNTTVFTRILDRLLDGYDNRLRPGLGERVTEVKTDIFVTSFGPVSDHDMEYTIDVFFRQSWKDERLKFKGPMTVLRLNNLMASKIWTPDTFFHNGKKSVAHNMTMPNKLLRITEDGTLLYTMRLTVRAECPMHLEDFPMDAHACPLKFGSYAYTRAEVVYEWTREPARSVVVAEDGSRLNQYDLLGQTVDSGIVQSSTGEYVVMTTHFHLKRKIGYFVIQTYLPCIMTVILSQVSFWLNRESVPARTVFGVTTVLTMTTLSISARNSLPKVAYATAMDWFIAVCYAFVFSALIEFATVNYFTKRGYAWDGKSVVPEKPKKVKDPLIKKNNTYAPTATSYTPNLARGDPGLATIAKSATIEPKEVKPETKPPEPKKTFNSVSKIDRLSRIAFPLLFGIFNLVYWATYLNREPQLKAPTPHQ
Assay readout: Activity

Tell me the measured Activity of "Cc1nnc2n1-c1ccc(Cl)cc1C(c1ccccc1)=NC2" , please.
327%

Tell me the measured Activity of "CC(=O)N1CCc2nc(O)n3cc(-c4ccccc4F)nc3c2C1" , please.
0%

Tell me the measured Activity of "Cc1ccc(-c2cn3c(O)nc4c(c3n2)CN(Cc2ccccc2)CC4)cc1" , please.
62%

Tell me the measured Activity of "Oc1nc2c(c3nc(-c4ccc(F)cc4F)cn13)CN(Cc1ccccc1)CC2" , please.
63%

Tell me the measured Activity of "Oc1nc2c(c3nc(-c4ccccc4F)cn13)CN(Cc1c[nH]cn1)CC2" , please.
40%

Tell me the measured Activity of "Oc1nc2c(c3nc(-c4ccc(F)cc4)cn13)CN(Cc1ccccc1)CC2" , please.
186%

Tell me the measured Activity of "CCC(=O)N1CCc2nc(O)n3cc(-c4ccccc4F)nc3c2C1" , please.
12%

Tell me the measured Activity of "Oc1nc2c(c3nc(-c4cccc(F)c4)cn13)CN(Cc1ccccc1)CC2" , please.
92%

Tell me the measured Activity of "Oc1nc2c(c3nc(-c4ccccc4F)cn13)CN(CC1CC1)CC2" , please.
31%

Tell me the measured Activity of "Oc1nc2c(c3nc(-c4ccccc4F)cn13)CN(Cc1cccs1)CC2" , please.
50%

Tell me the measured Activity of "Oc1nc2c(c3nc(-c4ccccc4)cn13)CN(Cc1ccccc1)CC2" , please.
67%

Tell me the measured Activity of "Oc1nc2c(c3nc(-c4ccccc4F)cn13)CN(Cc1ccncc1)CC2" , please.
17%

Tell me the measured Activity of "Oc1nc2c(c3nc(-c4ccccc4F)cn13)CN(c1ncccn1)CC2" , please.
0%

Tell me the measured Activity of "CCCCN1CCc2nc(O)n3cc(-c4ccccc4F)nc3c2C1" , please.
70%

Tell me the measured Activity of "CN1CCc2nc(O)n3cc(-c4ccccc4F)nc3c2C1" , please.
0%

* * *

I'd be grateful if you could share measured pEC50 for these entries.
target: Gamma-aminobutyric acid receptor subunit alpha-2 (Homo sapiens, UniProt P47869); assay: Effective concentration against gamma-aminobutyric acid (GABA) A receptor, alpha 2
Sequence (P47869 whole entry): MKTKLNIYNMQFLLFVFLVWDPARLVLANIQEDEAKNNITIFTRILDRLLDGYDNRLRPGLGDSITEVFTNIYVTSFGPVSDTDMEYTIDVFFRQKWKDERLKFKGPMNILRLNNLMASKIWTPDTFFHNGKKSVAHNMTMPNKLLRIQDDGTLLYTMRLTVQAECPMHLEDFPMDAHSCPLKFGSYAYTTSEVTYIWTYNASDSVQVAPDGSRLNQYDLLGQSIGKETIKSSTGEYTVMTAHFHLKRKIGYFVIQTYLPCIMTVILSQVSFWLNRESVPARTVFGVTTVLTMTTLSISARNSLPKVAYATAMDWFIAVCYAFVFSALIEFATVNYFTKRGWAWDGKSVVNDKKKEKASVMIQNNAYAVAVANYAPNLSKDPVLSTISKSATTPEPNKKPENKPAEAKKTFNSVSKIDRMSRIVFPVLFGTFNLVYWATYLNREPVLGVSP
pEC50 (log units): -log10 of the concentration in mol/L.

Entry "Cc1nnc2n1-c1ccc(Cl)cc1C(c1ccccc1)=NC2" , system Gamma-aminobutyric acid receptor subunit alpha-2 (Homo sapiens, UniProt P47869): what pEC50 was measured?
7.92

Entry "O=c1[nH]c2c(c3nc(-c4ccccc4F)cn13)CN(CC1CCCCC1)CC2" , system Gamma-aminobutyric acid receptor subunit alpha-2 (Homo sapiens, UniProt P47869): what pEC50 was measured?
6.69

Entry "O=c1[nH]c2c(c3nc(-c4ccccc4F)cn13)CN(Cc1ccccc1)CC2" , system Gamma-aminobutyric acid receptor subunit alpha-2 (Homo sapiens, UniProt P47869): what pEC50 was measured?
7.70

* * *

target: Gamma-aminobutyric acid receptor subunit alpha-3 (Homo sapiens) (UniProt P34903); experiment: Maximum percent potentiation against gamma-aminobutyric acid (GABA) A receptor, alpha 3; conditions: Xenopus laevis
Sequence (P34903 whole entry): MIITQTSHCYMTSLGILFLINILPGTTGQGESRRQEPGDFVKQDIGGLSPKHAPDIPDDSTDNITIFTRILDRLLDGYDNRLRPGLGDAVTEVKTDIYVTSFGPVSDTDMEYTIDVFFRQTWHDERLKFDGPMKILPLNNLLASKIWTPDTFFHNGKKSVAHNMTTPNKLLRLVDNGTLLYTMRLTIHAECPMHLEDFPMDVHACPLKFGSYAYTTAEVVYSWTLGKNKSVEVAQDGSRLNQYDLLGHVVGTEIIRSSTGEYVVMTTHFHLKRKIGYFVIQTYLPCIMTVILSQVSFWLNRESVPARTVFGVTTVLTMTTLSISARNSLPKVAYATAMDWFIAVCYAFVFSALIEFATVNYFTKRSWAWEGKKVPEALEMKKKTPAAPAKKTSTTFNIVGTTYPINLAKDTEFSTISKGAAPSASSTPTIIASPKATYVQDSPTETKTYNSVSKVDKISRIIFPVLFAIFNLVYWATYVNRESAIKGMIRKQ
I'd be grateful if you could share measured Activity for these entries.
State just the number; it will be interpreted in %.

Tell me the measured Activity of "Oc1nc2c(c3nc(-c4ccccc4F)cn13)CN(Cc1cccnc1)CC2" , please.
81

Tell me the measured Activity of "Cc1ccc(-c2cn3c(O)nc4c(c3n2)CN(Cc2ccccc2)CC4)cc1" , please.
174

Tell me the measured Activity of "Oc1nc2c(c3nc(-c4ccccc4F)cn13)CN(Cc1c[nH]cn1)CC2" , please.
49

Tell me the measured Activity of "CC(=O)N1CCc2nc(O)n3cc(-c4ccccc4F)nc3c2C1" , please.
11

Tell me the measured Activity of "CCC(=O)N1CCc2nc(O)n3cc(-c4ccccc4F)nc3c2C1" , please.
9

Tell me the measured Activity of "CCCCN1CCc2nc(O)n3cc(-c4ccccc4F)nc3c2C1" , please.
72

Tell me the measured Activity of "Oc1nc2c(c3nc(-c4ccccc4F)cn13)CN(c1ncccn1)CC2" , please.
35

Tell me the measured Activity of "C=CCN1CCc2nc(O)n3cc(-c4ccccc4F)nc3c2C1" , please.
20
